Reported ELISA IC50 ratio values follow for various binders
Molecular target: T1, recombinant human lymphotoxin-α homotrimer (human LTα3) (human, UniProt P01374 35-205)
T1 construct: Coated on plates in the ELISAs; also called rhLTα; lymphotoxin-α3 trimer
T1 sequence (looked up): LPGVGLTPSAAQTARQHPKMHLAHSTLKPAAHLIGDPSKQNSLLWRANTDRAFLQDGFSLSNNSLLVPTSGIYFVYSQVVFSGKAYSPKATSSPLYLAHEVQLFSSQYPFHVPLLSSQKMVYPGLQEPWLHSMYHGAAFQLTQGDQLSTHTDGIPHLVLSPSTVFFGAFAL
Assay: plate ELISA on coated human LTα

{"binder": "humanized 2C8.v2 (antibody, IgG1, V domains shown, also called Version 2) VH: EVQLVESGGGLVQPGGSLRLSCAASGYTFTSYVIHWVRQAPGKGLEWVGYNNPYNDGTNYNEKFKGRATISSDKSKNTAYLQMNSLRAEDTAVYYCSRPTMLPWFAYWGQGTLVTVSS VL: DIQMTQSPSSLSASVGDRVTITCRASQAVSSAVAWYQQKPGKAPKLQIYSASHRYTGVPSRFSGSGSGTDFTLTISSLQPEDFATYYCQQHYSTPWTFGQGTKVEIKR", "ELISA IC50 ratio, ratio": 1.7}
{"binder": "humanized 2C8.v7 (antibody, V domains shown, Human kappa / IgG1; copies: 2 + 2) VH: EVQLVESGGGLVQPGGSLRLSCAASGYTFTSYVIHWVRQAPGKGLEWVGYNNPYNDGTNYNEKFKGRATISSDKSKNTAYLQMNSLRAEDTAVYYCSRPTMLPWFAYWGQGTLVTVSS VL: DIQMTQSPSSLSASVGDRVTITCRASQAVSSAVAWYQQKPGKAPKLLIYSASHRYTGVPSRFSGSGSGTDFTLTISSLQPEDFATYYCQQHYSTPWTFGQGTKVEIKR", "ELISA IC50 ratio, ratio": 1.2}
{"binder": "humanized 2C8.v16 (antibody, human IgG1, V domains shown, Heavy chain: v12 variable domain on human IgG1; copies: 2 + 2) VH: EVQLVESGGGLVQPGGSLRLSCAASGYTFTSYVIHWVRQAPGKGLEWVGYNNPYNDGTNYNEKFKGRFTISSDKSKNTAYLQMNSLRAEDTAVYYCSRPTMLPWFAYWGQGTLVTVSS VL: DIQMTQSPSSLSASVGDRVTITCRASQAVSSAVAWYQQKPGKAPKLLIYSASHRYTGVPSRFSGSGSGTDFTLTISSLQPEDFATYYCQESYSTPWTFGQGTKVEIKR", "ELISA IC50 ratio, ratio": 0.6}

Cited source: patent US20130011412A1
